The values you see were collected from ChEMBL document CHEMBL5058577.

- Tested on: Fibroblast
- experiment.description: Multiplex assay against human fibroblast
- Type: toxicity, cell-based
- study.conditions: 12 h, 1 µM, compound concentration 1 uM, replicate 1
test.readout: Population Healthy Nuclei (%)

INSERT INTO measurements (compound, test_readout, scale_unit, endpoint_value) VALUES
  ('CC(=O)Nc1cccc2c1c(Sc1ccc(Cl)cc1)c(C)n2CC(=O)O [AZD1981]', 'Population Healthy Nuclei (%)', '%', 61),
  ('CN1CCN(c2cc(-c3ccccc3)nc(N)n2)CC1', 'Population Healthy Nuclei (%)', '%', 68),
  ('Cc1c(CC(=O)O)c2cccnc2n1Cc1ccc(S(C)(=O)=O)cc1C(F)(F)F [FEVIPIPRANT]', 'Population Healthy Nuclei (%)', '%', 60),
  ('O=C1[C@H](Cc2ccc(O)cc2)N2C(=O)CCN(C(=O)NCc3ccccc3)[C@H]2CN1Cc1cccc2ccccc12', 'Population Healthy Nuclei (%)', '%', 57),
  ('Cc1noc(-c2ccc(-c3ccc(CC(=O)O)cc3)cc2)c1NC(=O)O[C@H](C)c1ccccc1Cl', 'Population Healthy Nuclei (%)', '%', 77),
  ('O=C(NCCN1CCC(n2c(=O)[nH]c3cc(Cl)ccc32)CC1)c1ccc(F)cc1 [HALOPEMIDE]', 'Population Healthy Nuclei (%)', '%', 62),
  ('N#Cc1c(Oc2cccc(OS(=O)(=O)CCCC(F)(F)F)c2)cccc1C(F)(F)F', 'Population Healthy Nuclei (%)', '%', 63),
  ('Cc1onc(-c2ccccc2Cl)c1C(=O)N(C)c1ccc(Cl)cc1', 'Population Healthy Nuclei (%)', '%', 68),
  ('Cc1cccc(NC(=O)CN2CCC(c3ccccn3)CC2)c1.Cl.Cl', 'Population Healthy Nuclei (%)', '%', 70);
